test: Tolerability in rats: liver enzyme panel 24 hours post dose; type: in vivo, rat; conditions: Sprague Dawley female rats, 6 mg/kg, serum
measured_attribute: ALP (U/L)
Give your result in U/L as a bare value.

CCCCC/C=C\C/C=C\CCCCCCCC(=O)OCC(COC(=O)CCC(OCCCCCCCC)OCCCCCCCC)COC(=O)OCCCN(CC)CC (stereo not shown) [Compound 49, reference compound] ... 784.3
CCCCC/C=C\C/C=C\CCCCCCCC(=O)OCC(COC(=O)CCCCCCC/C=C\C/C=C\CCCCC)OC(=O)CCC(CCCCCC)OC(=O)OCCCN1CCCC1 (stereo not shown) [Compound 45] ... 439.8
CCCCC/C=C\C/C=C\CCCCCCCC(=O)OCC(COC(=O)CCCCCCC/C=C\C/C=C\CCCCC)OC(=O)CCC(CCCCCC)OC(=O)NCCN1CCCC1 (racemic) [Compound 50] ... 508.6

Continue with the compound presented below.
*Q* ALP (U/L) for CCCCC/C=C\C/C=C\CCCCCCCC(=O)OCC(COC(=O)CCCCCCC/C=C\C/C=C\CCCCC)OC(=O)CCC(CCCCCCCC)OC(=O)NCCN(C)CC (stereo not shown) [Compound 34] ?
*A* 542

---

assay: Tolerability in rats: liver enzyme panel 24 hours post dose; assay type: in vivo, rat; details: Sprague Dawley female rats, 6 mg/kg, serum
measured_attribute: Creatine kinase (U/L)
Hey, just the number and the unit after it is fine.

Use the examples below as a reference point.
CCCCC/C=C\C/C=C\CCCCCCCC(=O)OCC(COC(=O)CCCCCCC/C=C\C/C=C\CCCCC)OC(=O)CCC(CCCCCC)OC(=O)NCCN1CCCC1 (racemic) ... 272 U/L
CCCCC/C=C\C/C=C\CCCCCCCC(=O)OCC(COC(=O)CCCCCCC/C=C\C/C=C\CCCCC)OC(=O)CCC(CCCCCC)OC(=O)OCCCN1CCCC1 (stereo not shown) ... 1103 U/L
CCCCC/C=C\C/C=C\CCCCCCCC(=O)OCC(COC(=O)CCCCCCC/C=C\C/C=C\CCCCC)OC(=O)CCC(CCCCCCCC)OC(=O)NCCN(C)CC (stereo not shown) ... 184.8 U/L

*Q* Query: Creatine kinase (U/L); subject: CCCCC/C=C\C/C=C\CCCCCCCC(=O)OCC(COC(=O)CCC(OCCCCCCCC)OCCCCCCCC)COC(=O)OCCCN(CC)CC (stereo not shown) [Compound 49, reference compound]
*A* 157.5 U/L

---

assay: pKa of amine lipid by TNS fluorescence; assay type: physicochemical; conditions: probe TNS (6-(p-toluidino)-2-naphthalenesulfonic acid sodium salt), unformulated amine lipid in ethanol, sodium phosphate buffers -9.0
The entries below are paired with their reported pKa.
Form: value (number only, do not type unit).

CCCCCCCCCCCOC(=O)CCCCCCCC(=O)OCC(COC(=O)CCCCCCCC(=O)OCCCCCCCCCCC)OC(=O)CCCC(CCCCCCCC)OC(=O)NCCN(C)CC (stereo not shown) ... 6.29

*Q* I'd like to know its pKa. The compound in question is CCCCC/C=C\C/C=C\CCCCCCCC(=O)OCC(COC(=O)CCCCCCC/C=C\C/C=C\CCCCC)OC(=O)C1(C(CCCCCCCC)OC(=O)NCCN(C)CC)CC1 (stereo not shown)
*A* 6.23

*Q* How about CCCCC/C=C\C/C=C\CCCCCCCC(=O)OCC(COC(=O)CCCCCCC/C=C\C/C=C\CCCCC)OC(=O)CCC(CCCCCCCC)OC(=O)OCCCCN(CC)CC (stereo not shown) ?
*A* 6.15

*Q* Param item: CCCCC/C=C\C/C=C\CCCCCCCC(=O)OCC(COC(=O)CCCCCCC/C=C\C/C=C\CCCCC)COC(=O)C(C)(C)C(CCCCCC)OC(=O)NCCN1CCCC1 (stereo not shown)
*A* 6.6

*Q* And then CCCCCC/C=C\COC(=O)CCCCCCCC(=O)OCC(COC(=O)CCCCCCCC(=O)OC/C=C\CCCCCC)OC(=O)CCC(CCCCCCCCCCCC)OC(=O)NCC1CCCN1C (stereo not shown) , what is it?
*A* 6.1

*Q* And for CCCCC/C=C\C/C=C\CCCCCCCC(=O)OCC(COC(=O)CCCCCCC/C=C\C/C=C\CCCCC)OC(=O)CCC(CCCCCCCCCCCC)OC(=O)NCCCN(C)C (stereo not shown) ?
*A* 7.54

*Q* Same thing, different compound: CCCCC/C=C\C/C=C\CCCCCCCC(=O)OCC(COC(=O)CCCCCCC/C=C\C/C=C\CCCCC)COC(=O)CC(CCCCCCCC)OC(=O)NCCN(C)CC (stereo not shown)
*A* 6.29

---

experiment: LNP average particle size and polydispersity by dynamic light scattering; assay type: physicochemical; conditions: Table 10; LNP with G00534 sgRNA:Cas9 mRNA 1:2 w/w
measured_attribute: Z-Avg Size (nm)
I only need the number, in nm, no unit after it.

# annotated cases, reported Z-Avg Size (nm) shown
CCCCC/C=C\C/C=C\CCCCCCCC(=O)OCC(COC(=O)CCC(OCCCCCCCC)OCCCCCCCC)COC(=O)OCCCN(CC)CC (stereo not shown) [Compound 49, reference compound] ... 87.84
CCCCC/C=C\C/C=C\CCCCCCCC(=O)OCC(COC(=O)CCCCCCC/C=C\C/C=C\CCCCC)OC(=O)CCC(CCCCCC)OC(=O)NCCN1CCCC1 (racemic) [Compound 50] ... 98.55
CCCCC/C=C\C/C=C\CCCCCCCC(=O)OCC(COC(=O)CCCCCCC/C=C\C/C=C\CCCCC)OC(=O)CCC(CCCCCCCC)OC(=O)NCCN(C)CC (stereo not shown) [Compound 34] ... 96.43

Moving on to another compound below.
*Q* Name the recorded Z-Avg Size (nm) for CCCCC/C=C\C/C=C\CCCCCCCC(=O)OCC(COC(=O)CCCCCCC/C=C\C/C=C\CCCCC)OC(=O)CCC(CCCCCC)OC(=O)OCCCN1CCCC1 (stereo not shown) [Compound 45] .
*A* 101.00

---

assay: LNP average particle size and polydispersity by dynamic light scattering; format: physicochemical; details: Table 13; LNP sgRNA:Cas9 mRNA 1:2 w/w, N/P 6.0
Rule for this label: Yes means PDI is less than 0.02; No means PDI is at least 0.02.

Consider the worked cases shown below.
CCCCC/C=C\C/C=C\CCCCCCCC(=O)OCC(COC(=O)CCCCCCC/C=C\C/C=C\CCCCC)OC(=O)CCC(CCCCCCCC)OC(=O)NCCN1CCCC1 (stereo not shown) [Compound 51] ... Yes
CCCCC/C=C\C/C=C\CCCCCCCC(=O)OCC(COC(=O)CCCCCCC/C=C\C/C=C\CCCCC)OC(=O)CCC(CCCC)OC(=O)NCCN1CCCC1 (stereo not shown) [Compound 85] ... No
CCCCC/C=C\C/C=C\CCCCCCCC(=O)OCC(COC(=O)CCC(OCCCCCCCC)OCCCCCCCC)COC(=O)OCCCN(CC)CC (stereo not shown) [Compound 49, reference compound] ... Yes
CCCCC/C=C\C/C=C\CCCCCCCC(=O)OCC(COC(=O)CCCCCCC/C=C\C/C=C\CCCCC)OC(=O)CCC(CCCCCCCCCCCC)OC(=O)NCCN1CCCC1 (stereo not shown) [Compound 46] ... Yes
CCCCC/C=C\C/C=C\CCCCCCCC(=O)OCC(COC(=O)CCCCCCC/C=C\C/C=C\CCCCC)OC(=O)CCC(CCCCCCCC)OC(=O)NCCN(C)CC (stereo not shown) [Compound 34] ... Yes

*Q* Determine if CCCCC/C=C\C/C=C\CCCCCCCC(=O)OCC(COC(=O)CCCCCCC/C=C\C/C=C\CCCCC)OC(=O)CCC(CCCCCC)OC(=O)NCCN1CCCC1 (racemic) [Compound 50] shows PDI strictly lower than 0.02.
*A* No

*Q* How about CCCCC/C=C\C/C=C\CCCCCCCC(=O)OCC(COC(=O)CCCCCCC/C=C\C/C=C\CCCCC)OC(=O)CCC(CCCCC)OC(=O)NCCN1CCCC1 (stereo not shown) [Compound 72] ?
*A* Yes

---

experiment: LNP average particle size and polydispersity by dynamic light scattering; assay type: physicochemical; details: LNP with the compound as amine lipid; Expt. 5; composition ratio (mol %) 50/10/38.5/1.5
measured_attribute: Num Ave Size (nm)
Kindly provide the numeric value in nm only, without the unit symbol.

Consider the worked cases shown below.
CCCCC/C=C\C/C=C\CCCCCCCC(=O)OCC(COC(=O)CCCCCCC/C=C\C/C=C\CCCCC)OC(=O)CCC(CCCCCC)OC(=O)NC1CN(C)C1 (stereo not drawn) ... 75
CCCCC/C=C\C/C=C\CCCCCCCC(=O)OCC(COC(=O)CCCCCCC/C=C\C/C=C\CCCCC)OC(=O)CCC(CCCCCC)OC(=O)NCCN1CCCCC1 (stereo not drawn) ... 59
CCCCC/C=C\C/C=C\CCCCCCCC(=O)OCC(COC(=O)CCCCCCC/C=C\C/C=C\CCCCC)OC(=O)CCC(CCCCCC)OC(=O)NC(C)(C)CN1CCCC1 (stereo not drawn) ... 55
CCCCC/C=C\C/C=C\CCCCCCCC(=O)OCC(COC(=O)CCCCCCC/C=C\C/C=C\CCCCC)OC(=O)CCC(CCCCCC)OC(=O)NCCN1CCCC1 (racemic) ... 77
CCCCC/C=C\C/C=C\CCCCCCCC(=O)OCC(COC(=O)CCC(OCCCCCCCC)OCCCCCCCC)COC(=O)OCCCN(CC)CC (stereo not drawn) [Compound 49, reference compound] ... 65

// next item, Num Ave Size (nm) requested
*Q* // returns reported Num Ave Size (nm) for input CCCCC/C=C\C/C=C\CCCCCCCC(=O)OCC(COC(=O)CCCCCCC/C=C\C/C=C\CCCCC)OC(=O)CCC(CCCCCC)OC(=O)NCCN1CCC1 (stereo not drawn)
*A* 78
